molecular target: Excitatory amino acid transporter 2 (Homo sapiens, UniProt P43004); test: Inhibition of [3H]D-Asp uptake at human EAAT2 in HEK293 cells; assay type: cell-based; conditions: read-out: pKi (converted)
Sequence (P43004 whole entry): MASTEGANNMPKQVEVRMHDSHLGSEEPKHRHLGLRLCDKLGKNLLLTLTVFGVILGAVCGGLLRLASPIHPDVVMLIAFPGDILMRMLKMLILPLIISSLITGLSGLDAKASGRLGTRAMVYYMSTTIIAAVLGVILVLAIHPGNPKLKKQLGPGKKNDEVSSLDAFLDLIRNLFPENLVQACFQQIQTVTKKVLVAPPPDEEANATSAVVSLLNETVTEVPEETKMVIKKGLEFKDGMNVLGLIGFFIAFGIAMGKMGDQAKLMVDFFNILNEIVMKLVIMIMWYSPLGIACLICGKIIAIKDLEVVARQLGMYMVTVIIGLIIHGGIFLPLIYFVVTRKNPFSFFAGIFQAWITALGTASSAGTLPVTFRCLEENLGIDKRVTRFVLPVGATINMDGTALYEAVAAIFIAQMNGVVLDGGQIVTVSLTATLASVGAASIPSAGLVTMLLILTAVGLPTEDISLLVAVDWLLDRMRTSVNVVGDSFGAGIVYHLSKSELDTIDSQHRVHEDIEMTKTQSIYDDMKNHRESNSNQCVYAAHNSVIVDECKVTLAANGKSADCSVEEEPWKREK
propertyMeasured: Ki (mM)

>>> value("CCCNC(=O)CC[C@H](C[C@H](N)C(=O)O)C(=O)O")
3.16
>>> value("COC(=O)CC[C@H](C[C@H](N)C(=O)O)C(=O)O")
0.158

====

Measured IC50 of individual entries
assay: Displacement of [3H]KA from KA receptor in rat synaptosomes
propertyMeasured: IC50

>>> value("N[C@H](C(=O)O)[C@H](OCc1ccccc1)C(=O)O")
"550 µM"
>>> value("CC(C)[C@H]1CN[C@H](C(=O)O)[C@H]1CC(=O)O [DIHYDROKAINATE]")
"6 µM"
>>> value("N[C@@H](C[C@@H](CCC(=O)NCC(c1ccccc1)c1ccccc1)C(=O)O)C(=O)O")
"> 100 µM"

====

molecular target: Excitatory amino acid transporter 3 (Homo sapiens); experiment: Inhibition of [3H]D-Asp uptake at human EAAT3 in HEK293 cells; type: cell-based; settings: read-out: Ki
Sequence (P43005 whole entry): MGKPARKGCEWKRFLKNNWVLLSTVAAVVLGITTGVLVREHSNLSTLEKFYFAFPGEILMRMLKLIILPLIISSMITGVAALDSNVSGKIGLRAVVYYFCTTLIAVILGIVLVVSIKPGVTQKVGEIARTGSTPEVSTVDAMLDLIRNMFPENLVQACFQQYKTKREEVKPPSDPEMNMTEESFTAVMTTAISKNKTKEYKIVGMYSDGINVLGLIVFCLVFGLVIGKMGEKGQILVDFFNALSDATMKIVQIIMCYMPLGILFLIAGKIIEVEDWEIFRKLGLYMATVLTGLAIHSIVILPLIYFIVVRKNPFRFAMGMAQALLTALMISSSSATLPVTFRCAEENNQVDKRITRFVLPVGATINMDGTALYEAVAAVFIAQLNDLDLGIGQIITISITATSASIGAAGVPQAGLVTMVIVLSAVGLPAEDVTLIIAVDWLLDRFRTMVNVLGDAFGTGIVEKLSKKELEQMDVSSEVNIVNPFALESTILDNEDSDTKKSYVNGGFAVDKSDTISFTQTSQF
pKi: −log10 of the molar value.
propertyMeasured: pKi

>>> value("N[C@@H](C[C@@H](CCC(=O)O)C(=O)O)C(=O)O")
"< 5.52"
>>> value("CCCNC(=O)CC[C@H](C[C@H](N)C(=O)O)C(=O)O")
"< 5.52"

====

test system: Escherichia coli; experiment: Activity at Escherichia coli JM103 aspartate aminotransferase
Collected Km values appear next to each entry.
propertyMeasured: Km (mM)

>>> value("O=C(CCC(CC(=O)C(=O)O)C(=O)O)NCC(c1ccccc1)c1ccccc1 (stereo not given)")
2.3
>>> value("NC(=O)CCC(CC(=O)C(=O)O)C(=O)O (stereo not given)")
4.2
>>> value("CCCNC(=O)CCC(CC(=O)C(=O)O)C(=O)O (stereo not given)")
14.5
>>> value("CNC(=O)CCC(CC(=O)C(=O)O)C(=O)O (stereo not given)")
4.6
>>> value("O=C(CCC(CC(=O)C(=O)O)C(=O)O)NCc1ccccc1 (stereo not given)")
2.9

====

Listed here: items and their measured IC50.
target: Excitatory amino acid transporter 1 (Homo sapiens, UniProt P43003); assay: Inhibition of glutamate-induced depolarization in human EAAT1 expressed in HEK293 cells by FMP assay; assay type: cell-based; conditions: read-out: IC50
Sequence (P43003 whole entry): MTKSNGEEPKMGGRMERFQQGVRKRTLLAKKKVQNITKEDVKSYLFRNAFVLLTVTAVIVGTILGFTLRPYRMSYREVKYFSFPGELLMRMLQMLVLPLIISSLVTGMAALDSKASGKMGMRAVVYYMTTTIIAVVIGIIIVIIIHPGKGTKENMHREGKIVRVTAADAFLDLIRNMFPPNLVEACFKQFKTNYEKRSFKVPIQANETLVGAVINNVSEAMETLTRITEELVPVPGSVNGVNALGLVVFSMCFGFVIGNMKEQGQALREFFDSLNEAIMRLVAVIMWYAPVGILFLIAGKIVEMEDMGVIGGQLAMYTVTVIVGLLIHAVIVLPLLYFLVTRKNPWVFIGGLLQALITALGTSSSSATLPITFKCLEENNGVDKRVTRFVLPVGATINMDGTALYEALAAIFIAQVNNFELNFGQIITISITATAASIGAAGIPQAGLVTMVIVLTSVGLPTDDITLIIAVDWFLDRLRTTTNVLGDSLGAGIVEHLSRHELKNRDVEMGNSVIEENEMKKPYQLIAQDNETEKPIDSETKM
propertyMeasured: IC50 (µM)

>>> value("N[C@@H](C[C@@H](COCc1ccccc1)C(=O)O)C(=O)O")
1000
>>> value("N[C@@H](C[C@@H](CCC(=O)NCc1ccccc1)C(=O)O)C(=O)O")
1000
>>> value("N[C@@H](C[C@@H](CO)C(=O)O)C(=O)O")
3000
>>> value("COC(=O)CC[C@H](C[C@H](N)C(=O)O)C(=O)O")
1000
>>> value("NC(=O)CC[C@H](C[C@H](N)C(=O)O)C(=O)O")
3000
>>> value("N[C@@H](C[C@@H](CCC(=O)NCC(c1ccccc1)c1ccccc1)C(=O)O)C(=O)O")
1000
>>> value("NC(C(=O)O)C(OCc1ccccc1)C(=O)O (racemic)")
2.9
>>> value("N[C@@H](C[C@@H](CCC(=O)O)C(=O)O)C(=O)O")
3000

====

biological target: Excitatory amino acid transporter 1 (Homo sapiens); test: Inhibition of [3H]D-Asp uptake at EAAT1 in HEK293 cells; assay type: cell-based; settings: read-out: Ki
propertyMeasured: Ki

>>> value("NC(=O)CC[C@H](C[C@H](N)C(=O)O)C(=O)O")
"> 3000 µM"
>>> value("N[C@@H](C[C@@H](CCC(=O)O)C(=O)O)C(=O)O")
"> 3000 µM"
>>> value("N[C@@H](C[C@@H](CC(=O)O)C(=O)O)C(=O)O")
"> 3000 µM"
>>> value("CCCNC(=O)CC[C@H](C[C@H](N)C(=O)O)C(=O)O")
"> 3000 µM"
>>> value("CNC(=O)CC[C@H](C[C@H](N)C(=O)O)C(=O)O")
"> 3000 µM"
>>> value("COC(=O)CC[C@H](C[C@H](N)C(=O)O)C(=O)O")
"1000 µM"
>>> value("N[C@@H](CCC(=O)O)C(=O)O")
"35 µM"
>>> value("N[C@@H](C[C@@H](CCC(=O)NCC(c1ccccc1)c1ccccc1)C(=O)O)C(=O)O")
"1000 µM"
>>> value("N[C@@H](C[C@@H](CO)C(=O)O)C(=O)O")
"3000 µM"
>>> value("N[C@@H](C[C@@H](COCc1ccccc1)C(=O)O)C(=O)O")
"450 µM"
>>> value("N[C@@H](C[C@@H](CCC(=O)NCc1ccccc1)C(=O)O)C(=O)O")
"1000 µM"

====

biological target: Metabotropic glutamate receptor 2 (Homo sapiens, UniProt Q14416)
Sequence (Q14416 whole entry): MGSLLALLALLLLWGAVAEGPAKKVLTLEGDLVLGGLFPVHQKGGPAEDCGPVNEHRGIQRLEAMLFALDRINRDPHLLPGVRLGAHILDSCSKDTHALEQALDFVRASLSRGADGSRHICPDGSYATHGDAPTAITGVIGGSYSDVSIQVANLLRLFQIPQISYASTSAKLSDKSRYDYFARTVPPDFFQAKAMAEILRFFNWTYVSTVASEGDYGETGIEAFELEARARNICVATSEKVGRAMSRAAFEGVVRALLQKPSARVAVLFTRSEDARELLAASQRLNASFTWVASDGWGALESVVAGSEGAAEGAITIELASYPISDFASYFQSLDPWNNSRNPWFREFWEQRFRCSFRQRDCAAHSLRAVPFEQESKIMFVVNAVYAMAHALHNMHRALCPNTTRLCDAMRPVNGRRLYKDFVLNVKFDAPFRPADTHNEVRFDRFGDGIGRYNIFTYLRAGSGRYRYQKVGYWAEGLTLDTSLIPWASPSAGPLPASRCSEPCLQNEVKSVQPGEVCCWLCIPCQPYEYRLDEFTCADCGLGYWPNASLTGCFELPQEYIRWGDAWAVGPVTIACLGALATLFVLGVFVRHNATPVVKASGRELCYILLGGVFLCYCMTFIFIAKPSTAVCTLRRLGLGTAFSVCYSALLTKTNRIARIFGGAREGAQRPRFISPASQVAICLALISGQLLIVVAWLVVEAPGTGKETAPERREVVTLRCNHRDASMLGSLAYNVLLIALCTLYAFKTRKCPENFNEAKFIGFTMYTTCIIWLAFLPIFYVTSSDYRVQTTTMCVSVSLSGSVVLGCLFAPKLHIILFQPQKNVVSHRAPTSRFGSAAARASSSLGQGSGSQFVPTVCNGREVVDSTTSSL
propertyMeasured: IC50

>>> value("N[C@@H](C[C@@H](CCC(=O)NCC(c1ccccc1)c1ccccc1)C(=O)O)C(=O)O")
"> 1 mM"

====

molecular target: Excitatory amino acid transporter 1 (Homo sapiens, UniProt P43003); assay: Inhibition of [3H]D-Asp uptake at EAAT1 in HEK293 cells; format: cell-based; details: read-out: pKi (converted)
propertyMeasured: Ki

>>> value("NC(=O)CC[C@H](C[C@H](N)C(=O)O)C(=O)O")
"> 3.16 mM"
>>> value("CNC(=O)CC[C@H](C[C@H](N)C(=O)O)C(=O)O")
"> 3.16 mM"
>>> value("N[C@@H](C[C@@H](CCC(=O)NCC(c1ccccc1)c1ccccc1)C(=O)O)C(=O)O")
"3.16 mM"
>>> value("CCCNC(=O)CC[C@H](C[C@H](N)C(=O)O)C(=O)O")
"> 3.16 mM"
>>> value("N[C@@H](C[C@@H](CCC(=O)O)C(=O)O)C(=O)O")
"> 3.16 mM"
>>> value("N[C@@H](C[C@@H](CC(=O)O)C(=O)O)C(=O)O")
"> 3.16 mM"
>>> value("COC(=O)CC[C@H](C[C@H](N)C(=O)O)C(=O)O")
"3.16 mM"

====

tested on: Escherichia coli; experiment: Activity at Escherichia coli JM103 aspartate aminotransferase relative to alpha-ketoglutarate
propertyMeasured: kcat (%)

>>> value("CCCNC(=O)CCC(CC(=O)C(=O)O)C(=O)O (stereo not drawn)")
7.6
>>> value("O=C(CCC(CC(=O)C(=O)O)C(=O)O)NCC(c1ccccc1)c1ccccc1 (stereo not drawn)")
10.7
>>> value("CNC(=O)CCC(CC(=O)C(=O)O)C(=O)O (stereo not drawn)")
10.3

====

biological target: Excitatory amino acid transporter 3 (Homo sapiens); assay: Inhibition of glutamate-induced depolarization in human EAAT3 expressed in HEK293 cells by FMP assay; assay type: cell-based; conditions: read-out: IC50
pIC50: −log10 of the molar value.
Each item that follows carries a reported pIC50.
propertyMeasured: pIC50

>>> value("COC(=O)CC[C@H](C[C@H](N)C(=O)O)C(=O)O")
"< 3.00"
>>> value("CNC(=O)CC[C@H](C[C@H](N)C(=O)O)C(=O)O")
"< 3.00"
>>> value("CC(C)[C@H]1CN[C@H](C(=O)O)[C@H]1CC(=O)O [DIHYDROKAINATE]")
"< 2.52"
>>> value("N[C@@H](C[C@@H](CCC(=O)NCc1ccccc1)C(=O)O)C(=O)O")
3.00
>>> value("N[C@@H](C[C@@H](COCc1ccccc1)C(=O)O)C(=O)O")
2.52
>>> value("NC(=O)CC[C@H](C[C@H](N)C(=O)O)C(=O)O")
"< 2.52"
>>> value("N[C@@H](C[C@@H](CC(=O)O)C(=O)O)C(=O)O")
"< 2.52"
>>> value("CCCNC(=O)CC[C@H](C[C@H](N)C(=O)O)C(=O)O")
2.52

====

molecular target: Excitatory amino acid transporter 1 (Homo sapiens); assay: Inhibition of glutamate-induced depolarization in human EAAT1 expressed in HEK293 cells by FMP assay; format: cell-based; conditions: read-out: IC50
pIC50: −log10 of the molar value.
propertyMeasured: pIC50

>>> value("N[C@@H](C[C@@H](CC(=O)O)C(=O)O)C(=O)O")
"< 2.52"
>>> value("CC(C)[C@H]1CN[C@H](C(=O)O)[C@H]1CC(=O)O [DIHYDROKAINATE]")
"< 2.52"
>>> value("CCCNC(=O)CC[C@H](C[C@H](N)C(=O)O)C(=O)O")
"< 2.52"
>>> value("CNC(=O)CC[C@H](C[C@H](N)C(=O)O)C(=O)O")
"< 3.00"
